# protocol: in vitro
# Design: species or system CCD841, HEK293
# conditionNotes: human, hb2 cells, read-out: HB-2 Cells Viability (%)
Entries are sorted into classes by viability at 48 h, 10 µM as follows: lowest (below 50%), middle (50% to below 90%), highest (90% or more)

O=C(CCl)N1CC=C(c2c[nH]c3ccccc23)CC1	lowest
O=C(CCl)NC(=O)c1ccccc1Cl	highest
O=C(CCl)N1CCCC1c1ccsc1 (centres unmarked)	lowest
Cc1n[nH]c(C)c1NC(=O)CCl	highest
NC(=O)c1ccccc1NC(=O)CCl	middle
Cc1cc(Cl)ccc1NC(=O)CCl	lowest
C=CC(=O)Nc1nc(-c2ccc(O)cc2)cs1	middle

Into which category would you place C=CC(=O)N1CCC(n2cc(C)cn2)CC1 ?
highest
